Measured EC50 by item
- Assay system: T1, recombinant human IL-25 protein (human, UniProt Q9H293 33-177)
- T1 construct: Bought (Acro, catalog no: IL5-H4221) for ELISA; also called hIL-25; IL-17E
- T1 sequence: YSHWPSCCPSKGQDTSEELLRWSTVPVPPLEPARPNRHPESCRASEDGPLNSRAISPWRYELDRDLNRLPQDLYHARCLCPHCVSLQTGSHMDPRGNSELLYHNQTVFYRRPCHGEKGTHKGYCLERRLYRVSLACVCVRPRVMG
- Assay text: ELISA, IL-25 coated, goat anti-human IgG-HRP detection

Binder | EC50 [nM]
IL25Ab1 (antibody, V domains shown) VH: QVQLKESGPGLVAPSQSLSITCTVSGFSLTDYGINWVRQPPGKGLEWLGMIWGDGVTHYNSVLKSRLSISKDNSMSQIFLKMNSLQTDDTARYYCARTLFYDGTLYYYAMDYWGQGTSVTVSS VL: QIVLTQSPATMSASPGEKVTMTCSASSSVTYMYWYQQKTGSSPRLLIYDTPNLASGVPVRFSGSGSGTSYSLTISRVEAEDAATYYCQQWSSYPHTWTFGGGTKLEIK | 0.02
IL25Ab3 (antibody, V domains shown, detected with anti-human IgG or anti-human kappa reagents; also called anti-IL-25Ab3; mouse origin of anti-IL-25 specific antibody) VH: EVQLQQSGPELVKPGGSVRISCKASGYSFTGYTMNWVKQSHGKNLEWIGLINPDNGGTSHKQRFMGKATLTVDKSSSTAYMELLSLTSEDSAVYYCAREGYYGPSPFHHYAMDYWGQGTSVTVSS VL: DIQMTQTTSSLSASLGDRVTISCSASQDISNYLNWYQQKPDGTIKLLIYYTSTLHSGVPSRFSGSGSGTDYSLTISNLEPEDIATYYCQQYSKLPYTFGGGTKLEIK | 0.022
IL25Ab4 (antibody, V domains shown) VH: QVTLKESGPGILQPSQTLSLTCSFSGFSLSTSGMGVSWIRQPSGKGLEWLAHIYWDDAKFYNPSLKSRVTISKDTSRNQVFLRITSVDTADIATYYCARRGYDNYGGFVDWGQGTLVTVSS VL: ENVLIQSPAIMSASLGEKVTMSCRASSSVNYMYWYQQKSDAPPKLWIYYTSNLAPGVPGRFSGSGSGNSYSLTISSMEGEDAATYYCQQFTSYPYMYTFGGGTKLEIK | 0.034
